Reference source: paper PMC10766964

# Tested on: MDA-MB-231 (human breast cancer) cell line
# Protocol details: MTT cell viability assay in MDA-MB-231 cells
# Type: cell-based
# Study conditions: Table 2, MDA-MB-231, MTT, 72 h, 25 µM, read-out: Cell viability (%) ± SD
# Description: Thus, we screened the synthesized library of pyrazolo[1,5-a]pyrimidin-7-ols 4a–4i. […] After 72 h of cell incubation with or without each compound, cell viability was assessed using MTT (3-(4,5-dimethylthiazol-2-yl)-2,5-diphenyltetrazolium bromide), which is a colorimetric method for determining the number of viable cells in various assays including proliferation, cytotoxicity, or chemosensitivity. […] The absorbance values are directly proportional to the number of viable cells in culture. […]
Quick reference for viability at 25 µM among some molecules
Observable: viability at 25 µM

>>> reading("CC(=O)OC[C@H]1O[C@@H](n2cc(COc3cc(-c4ccc(F)cc4)nc4ccnn34)nn2)[C@H](OC(C)=O)[C@@H](OC(C)=O)[C@@H]1OC(C)=O")
"92.2%"
>>> reading("CC(=O)OC[C@H]1O[C@@H](n2cc(COc3cc(-c4ccc5ccccc5c4)nc4ccnn34)nn2)[C@H](OC(C)=O)[C@@H](OC(C)=O)[C@H]1OC(C)=O [Compound 10h]")
"89.6%"
>>> reading("CC(=O)OC[C@H]1O[C@H](n2cc(COc3cc(-c4ccc(Cl)cc4)nc4ccnn34)nn2)[C@@H](OC(C)=O)[C@@H](OC(C)=O)[C@@H]1OC(C)=O [Compound 11d]")
"92.1%"
>>> reading("CC(=O)OC[C@H]1O[C@H](n2cc(COc3cc(-c4ccc5c(c4)OCO5)nc4ccnn34)nn2)[C@@H](OC(C)=O)[C@@H](OC(C)=O)[C@@H]1OC(C)=O [Compound 11i]")
"95.3%"
>>> reading("CC(=O)OC[C@H]1O[C@@H](n2cc(COc3cc(-c4ccc(C(F)(F)F)cc4)nc4ccnn34)nn2)[C@H](OC(C)=O)[C@@H](OC(C)=O)[C@H]1OC(C)=O [Compound 10f]")
"45.1%"
>>> reading("COc1ccc(-c2cc(OCc3cn([C@H]4O[C@H](COC(C)=O)[C@@H](OC(C)=O)[C@H](OC(C)=O)[C@@H]4OC(C)=O)nn3)n3nccc3n2)cc1 [Compound 11b]")
"95.2%"
>>> reading("COc1ccc(-c2cc(OCc3cn([C@@H]4O[C@H](COC(C)=O)[C@H](OC(C)=O)[C@H](OC(C)=O)[C@H]4OC(C)=O)nn3)n3nccc3n2)cc1 [Compound 10b]")
"85.2%"
>>> reading("CC(=O)OC[C@H]1O[C@H](n2cc(COc3cc(-c4ccc(Br)cc4)nc4ccnn34)nn2)[C@@H](OC(C)=O)[C@@H](OC(C)=O)[C@@H]1OC(C)=O [Compound 11c]")
"76.5%"
>>> reading("COc1ccc(-c2cc(OCc3cn([C@@H]4O[C@H](COC(C)=O)[C@@H](OC(C)=O)[C@H](OC(C)=O)[C@H]4OC(C)=O)nn3)n3nccc3n2)cc1")
"85.5%"
>>> reading("CC(=O)OC[C@H]1O[C@H](n2cc(COc3cc(-c4ccc(C(F)(F)F)cc4)nc4ccnn34)nn2)[C@@H](OC(C)=O)[C@@H](OC(C)=O)[C@@H]1OC(C)=O [Compound 11f]")
"74.5%"
>>> reading("CC(=O)OC[C@H]1O[C@@H](n2cc(COc3cc(-c4ccc(C(C)C)cc4)nc4ccnn34)nn2)[C@H](OC(C)=O)[C@@H](OC(C)=O)[C@@H]1OC(C)=O")
"103%"
